# maps each entry to its inhibition at 1 µM
target: panel of 255 wild-type kinases (Homo sapiens); assay: Kinase panel profiling at 1 µmol/L (MSA or IMAP), percentage inhibition; type: biochemical; conditions: kinase CSK; 1 µmol/L single concentration; read-out: %-inhibition at 1 µmol/L, CSK
Sequence (P41240 whole entry): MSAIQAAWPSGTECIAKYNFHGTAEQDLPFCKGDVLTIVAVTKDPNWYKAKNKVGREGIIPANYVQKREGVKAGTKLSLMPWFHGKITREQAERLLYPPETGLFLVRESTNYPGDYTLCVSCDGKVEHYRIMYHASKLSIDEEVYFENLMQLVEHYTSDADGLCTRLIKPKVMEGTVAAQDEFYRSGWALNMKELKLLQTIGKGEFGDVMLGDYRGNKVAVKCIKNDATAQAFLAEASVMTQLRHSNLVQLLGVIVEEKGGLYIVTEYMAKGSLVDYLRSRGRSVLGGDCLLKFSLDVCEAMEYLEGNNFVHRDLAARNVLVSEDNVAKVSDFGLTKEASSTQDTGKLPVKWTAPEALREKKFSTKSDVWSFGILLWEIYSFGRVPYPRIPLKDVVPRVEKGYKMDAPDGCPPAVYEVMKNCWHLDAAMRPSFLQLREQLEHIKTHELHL
Don't forget the unit after the number, please.

Result for CCn1c(=O)c(-c2cc(NC(=O)Nc3ccccc3)c(F)cc2Br)cc2cnc(NC)cc21 , tested on panel of 255 wild-type kinases (Homo sapiens), inhibition at 1 µM: 50%

Result for Cn1cc(-c2cc3c(N4CCN(c5ncc([C@@](C)(N)c6ccc(F)cc6)cn5)CC4)ncnn3c2)cn1 , tested on panel of 255 wild-type kinases (Homo sapiens), inhibition at 1 µM: 2.57%

Result for Cc1cc(Nc2ncnc3ccc(NC4=NC(C)(C)CO4)cc23)ccc1Oc1ccn2ncnc2c1 , tested on panel of 255 wild-type kinases (Homo sapiens), inhibition at 1 µM: 6%

Each recorded value in this set is attributed to paper PMC9516332.
